Test system: Anti-HBsAg antibody(g)
Test: Antigen-induced release of fluorescently labeled peptide from immobilized antibody (Table 2), HBsAg antigen
Type: binding, goat
Conditions: anti-HBsAg antibody (goat), HBsAg
metricName: fluorescence intensity In solution (S) After antigen binding
Answer with a bare number; do not write a unit.

Recorded results for 3 sequences are shown here.
constructSequence: VYYCAREPTGTGIYFDVWGK [H2, VYYCA REPTG TGIYF DVWGK]
quantitativeReadout: 9136

constructSequence: TYLEWYPQKPGQSPKLLIYK [L1, TYLEW YPQKP GQSPK LLIYK]
quantitativeReadout: 20501

constructSequence: SYWIHWVKQRPGQGLEWIGE [H1, SYWIH WVKQR PGQGL EWIGE]
quantitativeReadout: 11453

// lookup fluorescence intensity In solution (S) After antigen binding | system=Anti-HBsAg antibody(g) | key= VYYCFQGSHVPFTK [L2, VYYCF QGSHV PFTK]
15359

###

Measured fluorescence intensity Bottom (B) of microplate Before antigen binding, listed per entry.
System: Anti-CRP antibody(r)
Experiment: Antigen-induced release of fluorescently labeled peptide from immobilized antibody (Table 2), CRP antigen
Assay type: binding
Conditions: anti-CRP antibody (rabbit)
When you answer, write just the number.

Need fluorescence intensity Bottom (B) of microplate Before antigen binding, item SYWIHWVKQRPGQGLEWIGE [H1, SYWIH WVKQR PGQGL EWIGE]
4912

Recorded fluorescence intensity Bottom (B) of microplate Before antigen binding of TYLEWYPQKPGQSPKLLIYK [L1, TYLEW YPQKP GQSPK LLIYK] , please.
6719

Sample VYYCFQGSHVPFTK [L2, VYYCF QGSHV PFTK] — what was its fluorescence intensity Bottom (B) of microplate Before antigen binding?
20394

Find the recorded fluorescence intensity Bottom (B) of microplate Before antigen binding belonging to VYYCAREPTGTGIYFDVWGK [H2, VYYCA REPTG TGIYF DVWGK] and report it.
22205

###

System: Anti-CRP antibody(r)
Assay: Antigen-induced release of fluorescently labeled peptide from immobilized antibody (Table 2), CRP antigen
Type: binding
Settings: anti-CRP antibody (rabbit)
metricName: fluorescence intensity Bottom (B) of microplate After antigen binding
Simply state the number, no unit and no words.

Would you please look over these solved cases?
constructSequence: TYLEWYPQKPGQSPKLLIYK [L1, TYLEW YPQKP GQSPK LLIYK]
quantitativeReadout: 3456
--
constructSequence: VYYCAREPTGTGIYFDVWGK [H2, VYYCA REPTG TGIYF DVWGK]
quantitativeReadout: 22205
--
constructSequence: VYYCFQGSHVPFTK [L2, VYYCF QGSHV PFTK]
quantitativeReadout: 11236

Provide the documented fluorescence intensity Bottom (B) of microplate After antigen binding with Anti-CRP antibody(r) as the system for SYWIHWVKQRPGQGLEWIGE [H1, SYWIH WVKQR PGQGL EWIGE]
3595

###

# fluorescence intensity Bottom (B) of microplate After antigen binding listing for each entry below
Test system: Anti-hCG antibody(m)
Experiment: Antigen-induced release of fluorescently labeled peptide from immobilized antibody (Table 2), hCG antigen
Format: binding
Details: anti-hCG antibody (mouse)
Just the number, please, no unit attached.

constructSequence: VYYCFQGSHVPFTK [L2, VYYCF QGSHV PFTK]
quantitativeReadout: 3072
//
constructSequence: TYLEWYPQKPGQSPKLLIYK [L1, TYLEW YPQKP GQSPK LLIYK]
quantitativeReadout: 1777

Value lookup for fluorescence intensity Bottom (B) of microplate After antigen binding; key = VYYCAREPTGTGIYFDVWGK [H2, VYYCA REPTG TGIYF DVWGK]
23320

What does the record list as fluorescence intensity Bottom (B) of microplate After antigen binding for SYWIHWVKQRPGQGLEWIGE [H1, SYWIH WVKQR PGQGL EWIGE] ?
1940

###

Tested on: Anti-HRP antibody(r)
Test: Antigen-induced release of fluorescently labeled peptide from immobilized antibody (Table 2), HRP antigen
Type: binding, rabbit
Conditions: anti-HRP antibody (rabbit), HRP
metricName: fluorescence intensity Bottom (B) of microplate After antigen binding

Sample answers from the record:
constructSequence: VYYCFQGSHVPFTK [L2, VYYCF QGSHV PFTK]
result: 3208

constructSequence: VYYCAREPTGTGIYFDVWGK [H2, VYYCA REPTG TGIYF DVWGK]
result: 1806

constructSequence: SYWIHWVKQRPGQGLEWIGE [H1, SYWIH WVKQR PGQGL EWIGE]
result: 1451

We now examine a further sequence.
Value lookup for fluorescence intensity Bottom (B) of microplate After antigen binding; key = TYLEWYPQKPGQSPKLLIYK [L1, TYLEW YPQKP GQSPK LLIYK]
1990

###

Items are presented alongside their recorded Bottom (B) of microplate Change (%).
Tested on: Anti-CRP antibody(r)
Experiment: Antigen-induced release of fluorescently labeled peptide from immobilized antibody (Table 2), CRP antigen
Format: binding
Settings: anti-CRP antibody (rabbit)
Return type: number; implicit unit %.

constructSequence: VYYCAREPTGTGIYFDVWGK [H2, VYYCA REPTG TGIYF DVWGK]
metricName: Bottom (B) of microplate Change (%)
unitText: %
quantitativeReadout: −39.5
//
constructSequence: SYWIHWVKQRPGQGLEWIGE [H1, SYWIH WVKQR PGQGL EWIGE]
metricName: Bottom (B) of microplate Change (%)
unitText: %
quantitativeReadout: −26.8
//
constructSequence: VYYCFQGSHVPFTK [L2, VYYCF QGSHV PFTK]
metricName: Bottom (B) of microplate Change (%)
unitText: %
quantitativeReadout: −44.9

Proceed to the following item.
Give the measured Bottom (B) of microplate Change (%) of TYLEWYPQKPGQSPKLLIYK [L1, TYLEW YPQKP GQSPK LLIYK] .
−48.6

###

Below is a list of entries, each paired with its recorded fluorescence intensity Bottom (B) of microplate After antigen binding value.
Tested on: Anti-HBsAg antibody(g)
Experiment: Antigen-induced release of fluorescently labeled peptide from immobilized antibody (Table 2), HBsAg antigen
Assay type: binding, goat
Conditions: anti-HBsAg antibody (goat), HBsAg

constructSequence: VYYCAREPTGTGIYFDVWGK [H2, VYYCA REPTG TGIYF DVWGK]
assayedTarget: Anti-HBsAg antibody(g)
result: 18773

Report fluorescence intensity Bottom (B) of microplate After antigen binding for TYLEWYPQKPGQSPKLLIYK [L1, TYLEW YPQKP GQSPK LLIYK] please.
5388

Which fluorescence intensity Bottom (B) of microplate After antigen binding reading was recorded for the sequence VYYCFQGSHVPFTK [L2, VYYCF QGSHV PFTK] ?
9856

// query fluorescence intensity Bottom (B) of microplate After antigen binding value for entry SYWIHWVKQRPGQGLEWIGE [H1, SYWIH WVKQR PGQGL EWIGE]
4618

###

Tested on: Anti-hCG antibody(m)
Experiment: Antigen-induced release of fluorescently labeled peptide from immobilized antibody (Table 2), hCG antigen
Format: binding
Conditions: anti-hCG antibody (mouse)
Entries and their measured fluorescence intensity Bottom (B) of microplate Before antigen binding follow.
Reply: number alone, nothing else.

Reference set, count: 3
constructSequence: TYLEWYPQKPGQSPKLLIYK [L1, TYLEW YPQKP GQSPK LLIYK]
quantitativeReadout: 4630
//
constructSequence: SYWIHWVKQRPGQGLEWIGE [H1, SYWIH WVKQR PGQGL EWIGE]
quantitativeReadout: 5646
//
constructSequence: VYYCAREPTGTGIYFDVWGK [H2, VYYCA REPTG TGIYF DVWGK]
quantitativeReadout: 23320

Which value of fluorescence intensity Bottom (B) of microplate Before antigen binding has been reported for VYYCFQGSHVPFTK [L2, VYYCF QGSHV PFTK] in the records?
33156

###

System: Anti-HRP antibody(r)
Assay: Antigen-induced release of fluorescently labeled peptide from immobilized antibody (Table 2), HRP antigen
Type: binding, rabbit
Conditions: anti-HRP antibody (rabbit), HRP
Below, each entry is listed with its recorded fluorescence intensity In solution (S) Before antigen binding.
Give the value as a plain number.

constructSequence: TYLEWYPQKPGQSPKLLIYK [L1, TYLEW YPQKP GQSPK LLIYK]
quantitativeReadout: 2687

Query (sequence): VYYCFQGSHVPFTK [L2, VYYCF QGSHV PFTK] ; field requested: fluorescence intensity In solution (S) Before antigen binding
2315

I am curious: what fluorescence intensity In solution (S) Before antigen binding value has been reported for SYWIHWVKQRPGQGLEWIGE [H1, SYWIH WVKQR PGQGL EWIGE] ?
2596

Data request, read-out fluorescence intensity In solution (S) Before antigen binding, for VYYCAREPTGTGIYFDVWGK [H2, VYYCA REPTG TGIYF DVWGK]
2272

###

Tested on: Anti-HRP antibody(r)
Assay: Antigen-induced release of fluorescently labeled peptide from immobilized antibody (Table 2), HRP antigen
Format: binding, rabbit
Conditions: anti-HRP antibody (rabbit), HRP
This section presents sequences with their documented Bottom (B) of microplate Change (%) values.
Give the value, in units of %, as a plain number.

constructSequence: VYYCFQGSHVPFTK [L2, VYYCF QGSHV PFTK]
assayedTarget: Anti-HRP antibody(r)
Bottom (B) of microplate Change (%): −74.5
--
constructSequence: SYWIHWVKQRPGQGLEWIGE [H1, SYWIH WVKQR PGQGL EWIGE]
assayedTarget: Anti-HRP antibody(r)
Bottom (B) of microplate Change (%): −87.7
--
constructSequence: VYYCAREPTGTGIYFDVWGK [H2, VYYCA REPTG TGIYF DVWGK]
assayedTarget: Anti-HRP antibody(r)
Bottom (B) of microplate Change (%): −85.2

Then there is this sequence:
Fill blank: measured Bottom (B) of microplate Change (%) of the sequence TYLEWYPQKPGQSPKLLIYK [L1, TYLEW YPQKP GQSPK LLIYK] is ____.
−87.3
